# Test system: A549 NSCLC
# assayMethodText: NCI tumour cell line growth inhibition, 48 h
assayEndpoint: TGI

>>> print(df.to_string())
                                 smilescode  valuereported
0  N.N.N.N.O=NN1CCCCCC1(P(=O)([O-])[O-])P(=O)([O-])[O-].[Pt+4].[Pt+4]       > 100 µM
1        O=C1c2sc(-c3ccc(F)cc3)cc2-n2cccc21       > 100 µM

Q: What does the record list as TGI for Cc1ccc(/C=N/Nc2nc3ccccc3s2)s1 ?
Result: > 100 µM

---

# System: SNB-19 CNS
# assayMethodText: NCI tumour cell line growth inhibition, 48 h
assayEndpoint: TGI

# count of solved cases: 4
compound	TGI
Nc1ccccc1SC(CC(=O)c1ccccc1)c1ccc([N+](=O)[O-])cc1 (stereo not given)	24.6 µM
CCCCCCCCCCCCNC(=O)[C@H]1CSC(c2cc3ccccc3s2)N1 (stereo not given in full)	11.2 µM
CCCCCN1CCN(c2ncccn2)CC1	> 100 µM
NC(=NCCCC1(c2ccccc2)CCCC1)Nc1ccc(Cl)cc1	3.98 µM

Consider now this further compound.
Q: # get_value(readout='TGI', item= C1=Nc2ccc(cc2)N=Cc2ccccc2OCc2cccc(n2)COc2ccccc21 )
Result: 75.1 µM

---

Listed next: entries and their corresponding TGI.
# Test system: SF-539 CNS
# assayMethodText: NCI tumour cell line growth inhibition, 48 h

>>> print(df.to_string())
                                   compound  assayendpoint  valuereported
0  CCOC(=O)/C(C=Nc1c(C)n(C)n(-c2ccccc2)c1=O)=C(/O)c1ccccc1            TGI       > 100 µM
1   CC(C)(C)OC(=O)[C@@H]1CCC(=S)N1Cc1ccccc1            TGI       > 100 µM
2  CSc1nc(NC2OCC(OC(C)=O)C(OC(C)=O)C2OC(C)=O)c(N=C(C)C(C)=O)c(=O)n1C (stereo unspecified)            TGI       > 100 µM
3       Nc1nc(Cl)cc(NCCCNc2cc(Cl)nc(N)n2)n1            TGI       > 100 µM
4             Cc1ccc2c3c(cnc2n1)C(=O)OCCN3C            TGI       > 100 µM

Q: What value of TGI has been reported for the following compound? Cc1ccc(S(=O)(=O)Oc2ccc([N+](=O)[O-])cc2[N+](=O)[O-])cc1
Result: 18.2 µM

---

Here, each record is paired with measured TGI data.
# System: MDA-N
# assayMethodText: NCI tumour cell line growth inhibition, 48 h

                                 smilescode  testsystem  valuereported
0             Cc1ccc2c3c(cnc2n1)C(=O)OCCN3C       MDA-N       > 100 µM
1  C/C(=C/c1ccccc1)CN(C(=O)/C=C\Sc1ccccc1)C(C)(C)C       MDA-N       > 100 µM

Q: Item Cc1cc(N)ccc1N=Nc1ccc(S(=O)(=O)CCOS(=O)(=O)O)cc1 has what recorded TGI?
Result: 0.755 µM

---

# Test system: A498 renal
# assayMethodText: NCI tumour cell line growth inhibition, 48 h
Where a SMILES comes first, the peptide text is derived from it. Bridges are numbered along the chain shown (N, C = ends). [ ]: non-standard residue; d: D form. The star is where a group is joined. PhAc = O=C(Cc1ccccc1)*
assayEndpoint: TGI

Here is how some compounds turned out for TGI.
>>> df
                                   compound  valuereported
0  O=c1[nH]c(=O)n(C2OC(CO)C(O)C2O)c2ncc(-c3ccc(-c4ccccc4)cc3)nc12 (stereo unspecified)        > 20 µM
1  Cc1cccc(-c2nn3c(c2-c2ccnc4ccc(C(N)=O)cc24)CCC3)n1       > 100 µM
2  O=C(CCCCCCCn1cc(-c2cccnc2)nn1)Nc1ccccc1-c1ccccc1      > 86.1 µM
3  O=C(Cc1ccccc1)N[C@@H]1COC(=O)[C@@H]2CCCN2C(=O)[C@@H]2CCCN2C1=O (PhAc-[dS]-Pro-Pro; ester 1-C)       > 100 µM
4  Cn1c2c(c3ccccc31)CCN1OCC=C[C@@H](C(=O)O)[C@@H]21       > 100 µM

Q: Name the recorded TGI for Cc1cc(=O)oc2cc(SC(=O)N(C)C)ccc12 .
Result: > 100 µM

Q: Fill blank: measured TGI of the compound C[N+](C)(C)CC(=O)N/N=C(\CCC(=O)NCCc1ccccc1)CC(=O)c1ccccc1 is ____.
Result: > 100 µM

Q: Requested field: TGI. Item: O=C(NCCO)c1cc2c(cn1)[nH]c1ccccc12
Result: > 100 µM

Q: Which value of TGI has been reported for COc1ccc2c(c1O)C(=O)C(CCC(=O)O)CC2 (stereo unspecified) in the records?
Result: > 100 µM

Q: Report TGI for Cc1cc2nc3c(C#N)c(-c4ccccc4)/c(=C\Nc4ccc(Cl)cc4)c(=O)n3c2cc1C please.
Result: > 100 µM

Q: Give the measured TGI of COC(=O)C(Cc1cnc[nH]1)NC(=O)CNC(=O)CCCn1c(=O)c2c3ccccc3n(C)c2n2nnc(-c3ccccc3)c12 (stereo unspecified) .
Result: > 100 µM

Q: I am curious: what TGI value has been reported for CC(C)(C)N1C(=O)c2ccccc2C1(O)C(F)(F)F (stereo unspecified) ?
Result: > 100 µM

Q: What TGI value was documented for this compound, CCCOc1ccc(-c2nc(-c3ccc(N=Cc4ccc(N(CCOS(C)(=O)=O)CCOS(C)(=O)=O)cc4C)cc3)cs2)cc1 ?
Result: 24.2 µM

Q: Given the entry C[C@H]1C(=O)O[C@@H]1[C@H]1COC(C)(C)O1 , report its measured TGI.
Result: > 100 µM
